The following compounds were reported with IC50 values on MAGL (Homo sapiens, UniProt Q99685) in different studies.
ASSAY_ENDPOINT: IC50

Cc1ccc(CN2CCN(C(=O)OC(C(F)(F)F)C(F)(F)F)CC2)c(OC(C)(C)C(=O)O)c1Cl	< 50 nM
Cc1c(-c2ccccc2)oc2c(C(=O)N3CCN(C4CN(C(=O)c5ccccc5)C4)CC3c3ccccc3)cccc2c1=O (stereo not drawn)	> 16700 nM
O=C(c1ccc(-c2cccc(C(F)(F)F)c2)cc1)N1CCC(C2CN(C(=O)c3nccs3)C2)CC1	< 5 nM

###

The following compounds were reported with IC50 values on MAGL (Homo sapiens, UniProt Q99685) in different studies.
ASSAY_ENDPOINT: IC50

O=C(c1ccc2c(ccn2-c2ccc(F)cc2)c1)N1CC(N2CCN(C(=O)c3cscn3)CC2)C1	< 5 nM
CC1(CCC(=O)N2CC(c3ccc(Oc4cccc(Cl)c4)nc3)C2)CCC(=O)N1 (single isomer, unassigned)	≥ 12500 nM
CS(=O)(=O)Nc1ccn(C(=O)N2CCN(Cc3ccc(C(F)(F)F)cc3N3CCC(c4nnn[nH]4)CC3)CC2)n1	100 to 1000 nM
O=C(c1ccc2c(ccn2-c2ccc(F)c(F)c2)c1)N1CCC(C2CN(C(=O)c3ccc[nH]3)C2)CC1	< 5 nM
O=C(c1ccc(Cc2ccc(C(F)(F)F)cc2)cc1)N1CCC(C2CN(C(=O)c3nccs3)C2)CC1	< 5 nM
Cc1c(C(=O)N2CC(N3CCN(C(=O)c4nccs4)CC3)C2)sc2cc(C(F)(F)F)ccc12	< 5 nM

###

The following molecules were reported with IC50 values on MAGL (Homo sapiens) in different studies.
Just so you know, the groups by IC50 go like this: lower bin: < 30 nM; middle bin: ≥ 30 nM and < 100 nM; upper bin: ≥ 100 nM

O=C1CO[C@H]2CCN(C(=O)N3CC(c4ccc(N5CCC(C(F)(F)F)C5)cc4)C3)C[C@H]2N1 (single isomer, unassigned)	lower bin
Cc1nc2cc(Cl)cc(Cl)c2cc1C(=O)N1CC(N2CCN(C(=O)c3nccs3)CC2)C1	upper bin
O=C1N[C@H](CCC(=O)N2CC(c3ccc(N4CCC5(C4)CC5(F)F)nc3)C2)CO1 (stereo partly drawn)	middle bin
O=C(c1cccc(-c2c[nH]nc2F)c1Cl)N1CCN2C[C@@](O)(c3ccc(C(F)(F)F)cn3)OC[C@@H]2C1	middle bin
O=C1CO[C@H]2CCN(C(=O)N3CC(c4ccc(OC(F)(F)F)c(Cl)c4)C3)C[C@@H]2N1 (single isomer, unassigned)	middle bin
Cc1ccc2oc(N3CCN(C(=O)c4ccc(-c5noc(C(C)(C)C)n5)c(Cl)c4)CC3)nc2n1	lower bin
O=C(c1ccc2nc(-c3ccccc3)oc2c1)N1CCN(C2CN(C(=O)c3nccs3)C2)CC1	upper bin
O=C1N[C@H](CCC(=O)N2CC(c3ccc(NCC4(C(F)(F)F)CC4)cn3)C2)CO1	lower bin
CC1CN(c2nc3nc(Cl)ccc3o2)CCN1C(=O)c1ccc(-c2cn(CC(C)(C)C)nn2)cc1 (stereo not drawn)	upper bin
O=C(c1cccc(N2CCC[C@@H](O)C2)c1Cl)N1CCN2C[C@@](O)(c3ccc(F)c(Cl)c3)CC[C@@H]2C1	upper bin
COc1ccc(C(c2ccccc2)C2CCN(C(=O)c3ccc4c(c3)NC(=O)CO4)CC2)cc1OCCF (single isomer, unassigned)	lower bin
O=C(c1ccc(Oc2cccc(Cl)c2)nc1)N1CC(N2CCN(C(=O)c3nccs3)CC2)C1	middle bin
O=C(c1ccc2c(c1)[nH]c(=O)n2-c1ccc(C(F)(F)F)cc1)N1CC(N2CCN(C(=O)c3cscn3)CC2)C1	upper bin
O=C1COC2CCN(C(=O)N3CC(OCc4ccc(C(F)(F)F)cc4F)C3)CC2N1 (single isomer, unassigned)	upper bin
O=C(c1ccc2c(ccn2-c2ncccn2)c1)N1CC(N[C@H]2CCN(C(=O)c3nccs3)C2)C1	middle bin
O=C1CO[C@H]2CCN(C(=O)N3CC(c4ccc(-c5ccc(Cl)cc5Cl)cc4)C3)C[C@H]2N1	lower bin
O=C1CO[C@H]2CCN(C(=O)N3CC(Oc4cccc(C5CC5)c4Cl)C3)C[C@H]2N1	lower bin
Cc1nc2c(C)ccc(Cl)c2cc1C(=O)N1CC(N2CCN(C(=O)c3nccs3)CC2)C1	upper bin
Cc1cc(C(=O)N2CCN(c3nc4nc(Cl)ccc4o3)CC2)ccc1-n1cnc(C(C)(C)C)n1	upper bin
O=C(c1ccc(-c2nc(-c3ccc(Cl)cc3Cl)cs2)cc1)N1CC(N2CCN(C(=O)c3nccs3)CC2)C1	lower bin

###

The following compounds were reported with IC50 values on UniProtKB Q99685 in different studies.
ASSAY_ENDPOINT: IC50 (nM)

O=C(c1ccc2c(c1)ncn2-c1ccc(F)cc1)N1CC(C2CCN(C(=O)c3nccs3)CC2)C1	23.2
O=C(c1ccc(-c2cccc(C(F)(F)F)c2)cc1)N1CC(N2CCN(C(=O)c3ccon3)CC2)C1	31
CS(=O)(=O)c1ccc(CN2CCC3(CC2)CN(C(=O)CC[C@@H]2COC(=O)N2)C3)cc1	1220
O=C(c1ccc(-n2cnc3ccccc32)cc1)N1CCN(C2CN(C(=O)c3nccs3)C2)CC1	3850
NC(=O)c1ccc(Cn2ncc3cc(C(=O)N4CC(N5CCN(C(=O)c6nccs6)CC5)C4)ccc32)cc1	718
Cn1ncc2c(C3CN(C(=O)N4CC[C@@H]5OCC(=O)N[C@@H]5C4)C3)cccc21	550
O=C(c1ccc2c(c1)CCN(Cc1ccccc1)C2)N1CC(N2CCN(C(=O)c3nccs3)CC2)C1	25
O=C(c1cccc(-c2c[nH]nc2F)c1Cl)N1CCN2CC(c3ccc(C(F)(F)F)nc3)OC[C@@H]2C1 (mixture of isomers)	15.8

###

The following molecules were reported with pIC50 values on MAGL (Homo sapiens, UniProt Q99685) in different studies.
pIC50: −log10 of the molar value.
ASSAY_ENDPOINT: pIC50

O=C1CO[C@H]2CCN(C(=O)N3CC(C#Cc4c(F)cc(C(F)(F)F)cc4Cl)C3)C[C@H]2N1	9.00
COc1cccc(C#CC2CN(C(=O)N3CC[C@@H]4OCC(=O)N[C@@H]4C3)C2)c1C	7.96
O=C(c1ccccc1)N1CCN(C2CN(C(=O)c3sc4cc(F)ccc4c3C3CCC3)C2)CC1	6.43
O=C1CO[C@H]2CCN(C(=O)N3CC(c4ccc(C5(C(F)(F)F)CC5)cc4)C3)C[C@H]2N1	8.40
O=C1N[C@H](CCC(=O)N2CC(c3ccc([C@H]4CC[C@H](C(F)(F)F)CC4)nc3)C2)CO1 (single isomer, unassigned)	8.05
COc1cccc(C(=O)N2CCN3C[C@@H](c4cc(F)c(F)cc4F)OC[C@@H]3C2)c1Cl	6.99
COc1cccc(C(c2ccccc2)C2CN(C(=O)c3ccc4c(c3)NC(=O)CO4)C2)c1 (centres unmarked)	6.74

###

The following compounds were reported with IC50 values on MAGL (Homo sapiens, UniProt Q99685) in different studies.
ASSAY_ENDPOINT: IC50

CS(=O)(=O)Nc1ccn(C(=O)N2CCN(Cc3ccc(C(F)(F)F)cc3N3CCC3)CC2)n1	≤ 100 nM
O=C(c1ccc2c(c1)CCN(Cc1cccc(C(F)(F)F)c1)C2)N1CC(N2CCN(C(=O)c3nccs3)CC2)C1	< 5 nM
O=C(c1nccs1)N1CC[C@H](NC2CN(C(=O)c3sc4cc(-c5ccccc5)ccc4c3Cl)C2)C1	< 5 nM
O=C(c1ccc2c(c1)CCN2Cc1ccc(C(F)(F)F)cc1)N1CC(N2CCN(C(=O)c3nccs3)CC2)C1	< 5 nM
CS(=O)(=O)Nc1ccn(C(=O)N2CCN(Cc3cc(Cl)ccc3N3CCOCC3)CC2)n1	≤ 100 nM

###

The following compounds were reported with pIC50 values on UniProt Q99685 in different studies.
pIC50: −log10 of the molar value.
ASSAY_ENDPOINT: pIC50

COc1cccc(C(=O)N2CCN3C[C@@H](c4cc(Cl)c(Cl)cn4)OC[C@@H]3C2)c1Cl (single isomer, unassigned)	8.08
O=C1CO[C@H]2CCN(C(=O)N3CC(c4ccc(N5CCC(C(F)(F)F)C5)cn4)C3)C[C@H]2N1 (single isomer, unassigned)	7.66
O=C(c1cscn1)N1CCN(C2CN(C(=O)c3cccc4nc(-c5ccc(F)cc5)oc34)C2)CC1	5.68
O=C(c1ccccc1)N1CCN(C2CN(C(=O)c3sc4cc(C(F)(F)F)ccc4c3F)C2)CC1	6.87
O=C(c1ccc2c(-c3ccc(C(F)(F)F)cc3)ncnc2c1)N1CC(N[C@H]2CCN(C(=O)c3nccs3)C2)C1	6.75

###

The following compounds were reported with IC50 values on MAGL (Homo sapiens) in different studies.
ASSAY_ENDPOINT: IC50 (nM)

O=C1CO[C@H]2CCN(C(=O)N3CC(c4ccc(-c5ccccc5OC(F)(F)F)cc4)C3)C[C@H]2N1	0.03
O=C(c1cccc(F)c1Cl)N1CCN2C[C@](O)(c3ccc(C(F)(F)F)cn3)CC[C@H]2C1	4820
N#Cc1cc(OC2CCN(C(=O)N3CC[C@@H]4OCC(=O)N[C@@H]4C3)CC2)ccc1C(F)(F)F	181
Cc1ccc2oc(N3CCN(C(=O)c4cc(O)c(-c5nnc(C(C)(C)C)o5)c(F)c4)CC3)nc2n1	368
CS(=O)(=O)c1ccc(C#CC2CN(C(=O)N3CC[C@@H]4OCC(=O)N[C@@H]4C3)C2)cc1	753
O=C(c1ccc(-c2cccc(C(F)(F)F)c2)cc1)N1CC(N2CCN(C(=O)c3ncco3)CC2)C1	9
